Every entry's value here was drawn from patent US10029990B2.

test: Concentration in blood plasma of rabbits during vaginal administration (vaginal suppositories 0.1 g); type: in vivo; conditions: rabbit, plasma, other: vaginal, 24 hours, read-out: Concentration of the substance in blood plasma 24 hours after administration
measurement-name: concentration at 24 h

>>> print(df.to_string())
                                   molecule        result
0  COC(=O)c1cccc(Nc2cc(=O)[nH]c(=O)[nH]2)c1  ~20000 ng/mL
